biological target: T1, human GPC3-His protein (human, UniProt P51654 25-559); experiment: SPR, antibody captured on Protein A chip, human GPC3-His analyte;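 further: measured at 25 °C flow cell, human GPC3-His injected at five concentrations up to 200 nM, 240 s association, up to 600 s dissociation, double-referenced, fitted to Langmuir 1:1 model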
T1 construct: also called human GPC3 protein; not shown: His tag
Entries and their kon
Lab book: enter the figure in M⁻¹ s⁻¹, no units written.

binder | unit | kon
F2.55.11 (antibody, human IgG1, kappa, V domains shown, Human-murine chimeric antibody) VH: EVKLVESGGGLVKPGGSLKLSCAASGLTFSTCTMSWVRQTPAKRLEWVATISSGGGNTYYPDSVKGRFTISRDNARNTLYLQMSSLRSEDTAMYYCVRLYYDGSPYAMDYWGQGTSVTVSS VL: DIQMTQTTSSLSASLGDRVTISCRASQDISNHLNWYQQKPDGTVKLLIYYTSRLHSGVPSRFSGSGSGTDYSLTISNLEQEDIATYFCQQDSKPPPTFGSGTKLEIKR | M⁻¹ s⁻¹ | 57000
F1.111.11 (antibody, human IgG1, kappa, V domains shown, Human-murine chimeric antibody) VH: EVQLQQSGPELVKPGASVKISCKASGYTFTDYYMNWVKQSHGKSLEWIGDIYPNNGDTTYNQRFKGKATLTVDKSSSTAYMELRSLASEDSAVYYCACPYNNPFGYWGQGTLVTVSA VL: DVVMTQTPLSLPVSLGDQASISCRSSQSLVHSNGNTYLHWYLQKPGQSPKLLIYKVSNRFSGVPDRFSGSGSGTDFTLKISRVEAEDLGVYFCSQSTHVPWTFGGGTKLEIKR | M⁻¹ s⁻¹ | 65800

# next binder below
Ask: Identify measured kon corresponding to F4.13.7 (antibody, human IgG1, kappa, V domains shown, Human-murine chimeric antibody) VH: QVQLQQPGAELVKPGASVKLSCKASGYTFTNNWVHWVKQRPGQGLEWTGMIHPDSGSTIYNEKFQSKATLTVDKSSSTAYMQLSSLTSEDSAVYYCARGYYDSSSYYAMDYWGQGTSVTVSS VL: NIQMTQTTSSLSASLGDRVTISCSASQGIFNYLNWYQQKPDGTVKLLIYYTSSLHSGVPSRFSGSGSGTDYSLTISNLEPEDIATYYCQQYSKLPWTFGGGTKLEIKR
Reply: 48400

The measured values listed here are drawn from patent US20260116991A1.
